Biological target: PCSK9 (Homo sapiens (Human))
Sequence (Q8NBP7 153-692): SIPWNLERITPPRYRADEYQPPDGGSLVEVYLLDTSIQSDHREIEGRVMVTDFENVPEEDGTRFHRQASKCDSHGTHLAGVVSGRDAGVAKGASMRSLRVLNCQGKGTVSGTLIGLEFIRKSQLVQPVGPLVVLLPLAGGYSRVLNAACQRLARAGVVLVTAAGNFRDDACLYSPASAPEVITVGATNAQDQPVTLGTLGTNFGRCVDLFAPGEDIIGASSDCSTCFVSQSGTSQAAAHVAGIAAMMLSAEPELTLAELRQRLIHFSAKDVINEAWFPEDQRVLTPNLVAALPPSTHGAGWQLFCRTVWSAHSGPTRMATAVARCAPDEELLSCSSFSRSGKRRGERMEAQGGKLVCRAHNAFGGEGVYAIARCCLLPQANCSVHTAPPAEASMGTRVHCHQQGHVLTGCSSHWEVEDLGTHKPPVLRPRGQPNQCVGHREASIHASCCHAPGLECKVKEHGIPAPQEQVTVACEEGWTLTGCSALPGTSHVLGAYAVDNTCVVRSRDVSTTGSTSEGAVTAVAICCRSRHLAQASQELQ
Assay: PCSK9 Alexa FRET Standard assay (displacement of AlexaFluor647 tagged cyclic peptide Reagent A)
Type: binding
Conditions: PCSK9 Alexa FRET Standard assay, 0.5 nM PCSK9, 20 nM AF cyclic peptide Reagent A; read-out: IC50
Starred links: 1 amine or outer side, 2 acyl side, 3 side chain; linkers in the order of their positions; H or OH if unused. Positions of bridges follow the written chain, without caps; N, C: chain ends. Non-standard residues stand in square brackets, D forms with d. Residues, ends and D or L forms follow the SMILES beside them. Trp(5-F) = N[C@@H](Cc1c[nH]c2ccc(F)cc12)C(=O)O; Phe(4-CH2NH2) = NCc1ccc(C[C@H](N)C(=O)O)cc1; dPro(cis-4-NH2) = N[C@H]1CN[C@@H](C(=O)O)C1; X17 = O=C(CCSCc1ccc(CSCCN[*:1])cc1)[*:2]; Lys(N3) = [N-]=[N+]=NCCCC[C@H](N)C(=O)O; Pro(4S-NH2) = N[C@@H]1CN[C@H](C(=O)O)C1; X4 = O=C(CCSCc1cccc(CSCCN[*:1])c1)[*:2]; mXylylene = c1cc(C[*:1])cc(C[*:2])c1; Adipoyl = O=C(CCCCC(=O)[*:2])[*:1]; X39 = c1cc(CCSCN[*:2])cc(C[*:1])c1; Aad = N[C@@H](CCCC(=O)O)C(=O)O; aThr = C[C@H](O)[C@H](N)C(=O)O; αMeP = C[C@@]1(C(=O)O)CCCN1; Mpa = O=C(O)CCS
# reported IC50; entries follow

COc1ccc(C[C@@H]2NC(=O)[C@H](CCC(=O)O)NC(=O)[C@@H]3C[C@H](N)CN3C(=O)[C@H](Cc3c[nH]c4ccc(F)cc34)NC(=O)[C@H](Cc3c[nH]c4ccc(F)cc34)NC(=O)[C@@H](C)NC(=O)[C@H](C)NC(=O)CCSCc3ccc(cc3)CSCCNC(=O)[C@]3(C)CCCN3C2=O)cc1 [Compound 382] (cyclo(A[dA][Trp(5-F)][Trp(5-F)][Pro(4S-NH2)]EY(Me)[αMeP][X17])): 0.00011 to 0.1 µM
CO[C@@H](C)[C@@H]1NC(=O)[C@@H]2CCCN2C(=O)[C@H](Cc2c[nH]c3ccc(F)cc23)NC(=O)[C@H](Cc2c[nH]c3ccc(F)cc23)NC(=O)CNC(=O)[C@H](CCCCN)NC(=O)CCSCc2cccc(c2)CSCCNC(=O)[C@]2(C)CCCN2C(=O)[C@H](Cc2ccc(O)cc2)NC1=O [Compound 070] (cyclo(G[Trp(5-F)][Trp(5-F)]P[aThr](Me)Y[αMeP][X4]K)): 21 to 50 µM
NC(=O)[C@@H]1Cc2ccc(cc2)CNC(=O)CCCCC(=O)NCC(=O)N[C@@H](Cc2c[nH]c3ccc(F)cc23)C(=O)N[C@@H](Cc2c[nH]c3ccc(F)cc23)C(=O)N[C@@H](CC(=O)O)C(=O)N[C@@H](Cc2cnc[nH]2)C(=O)N[C@@H](Cc2ccc(O)cc2)C(=O)N1 [Compound 438] (G[Trp(5-F)][Trp(5-F)]DHY[Phe(4-CH2NH2)]-NH2; linker N-7 via Adipoyl): 21 to 50 µM
COc1ccc(C[C@@H]2NC(=O)[C@H](CCCC(=O)O)NC(=O)[C@H]3C[C@@H](N)CN3C(=O)[C@H](Cc3c[nH]c4ccc(F)cc34)NC(=O)[C@H](Cc3c[nH]c4ccc(F)cc34)NC(=O)[C@@H](C)NC(=O)[C@H](CCCCN=[N+]=[N-])NC(=O)CCSCc3cccc(c3)CCSCNC(=O)[C@]3(C)CCCN3C2=O)cc1 [Compound 408] ([Mpa][Lys(N3)][dA][Trp(5-F)][Trp(5-F)][dPro(cis-4-NH2)][Aad]Y(Me)[αMeP]; linker 1-C via X39): 21 to 50 µM
C[C@H](O)[C@@H]1NC(=O)[C@@H]2CCCN2C(=O)[C@H](Cc2c[nH]c3ccc(F)cc23)NC(=O)[C@H](Cc2c[nH]c3ccc(F)cc23)NC(=O)CNC(=O)[C@H](CCCCN)NC(=O)CCSCc2cccc(c2)CSC[C@@H](C(N)=O)NC(=O)[C@]2(C)CCCN2C(=O)[C@H](Cc2ccc(O)cc2)NC1=O [Compound 050] ([Mpa]KG[Trp(5-F)][Trp(5-F)]P[aThr]Y[αMeP]C-NH2; linker 1-10 via mXylylene): 21 to 50 µM

Please look at this compound and report its IC50: COc1ccc(C[C@@H]2NC(=O)[C@@H]3CCC/C=C\CO[C@H]4C[C@@H](C(=O)N3)N(C4)C(=O)[C@H](Cc3c[nH]c4ccc(F)cc34)NC(=O)[C@H](Cc3c[nH]c4ccc(F)cc34)NC(=O)[C@@H](C)NC(=O)[C@H](CCCCN)NC(=O)CCSCc3cccc(c3)CSC[C@@H](C(N)=O)NC(=O)[C@]3(C)CCCN3C2=O)cc1 [Compound 500]
1 to 12.1 µM
